Let's go through some pKd measurements on UniProt O75475 together.
Sequence (O75475 whole entry): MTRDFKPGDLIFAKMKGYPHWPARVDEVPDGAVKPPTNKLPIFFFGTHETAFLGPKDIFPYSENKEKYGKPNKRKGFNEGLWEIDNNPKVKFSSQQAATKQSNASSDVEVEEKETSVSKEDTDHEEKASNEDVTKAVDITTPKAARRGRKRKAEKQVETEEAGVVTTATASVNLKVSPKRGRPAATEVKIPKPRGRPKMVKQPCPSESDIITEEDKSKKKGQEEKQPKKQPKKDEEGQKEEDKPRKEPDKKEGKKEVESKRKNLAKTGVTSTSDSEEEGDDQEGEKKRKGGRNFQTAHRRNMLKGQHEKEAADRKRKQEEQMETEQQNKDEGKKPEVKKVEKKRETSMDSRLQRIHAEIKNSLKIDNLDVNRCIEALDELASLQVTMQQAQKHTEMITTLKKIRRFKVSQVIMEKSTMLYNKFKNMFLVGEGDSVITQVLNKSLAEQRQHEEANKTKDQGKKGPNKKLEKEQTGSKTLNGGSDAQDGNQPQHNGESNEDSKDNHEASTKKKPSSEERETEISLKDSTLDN
Give only the number. pKd is defined as minus log10 of concentration in molar units.

Documented pKd of Nc1ccc(CNCc2cncc(Br)c2)cc1 : 3.83

Documented pKd of CCS(=O)(=O)c1ccccc1NC(=O)COc1cccc(CC(=O)O)c1 : 3.23

Documented pKd of NCc1cncc(Br)c1 : 3.67

Documented pKd of CCS(=O)(=O)c1ccccc1NC(=O)CCl : 3.15
